MEASUREMENT_NOTES: Metabolic stability in rat plasma after 30 mins
Type: ADME, cell-free
MEASUREMENT_PARAMETERS: read-out: Stability
EXPERIMENTAL_READOUT: remaining at 0.5 h (%)
Provide the reading as a plain figure in %.

The cases that follow already have their remaining at 0.5 h on record.
COc1ccc(C)cc1S(=O)(=O)Nc1cnc2ccccc2c1; 91
COc1cc([N+](=O)[O-])ccc1S(=O)(=O)Nc1cccnc1; 99
COc1ccc(OC)c(S(=O)(=O)Nc2cnc3ccccc3c2)c1; 97

Prompt: # lookup: remaining at 0.5 h of COc1cc([N+](=O)[O-])ccc1S(=O)(=O)Nc1cnc2ccccc2c1
Response: 96

Prompt: Let us now turn to COc1ccc(C)cc1S(=O)(=O)Nc1cccnc1
Response: 98

Prompt: Same lookup for COc1ccc(Br)cc1S(=O)(=O)Nc1cnc2ccccc2c1 , please.
Response: 66

====

MEASUREMENT_NOTES: Solubility at pH 7.4 by direct UV method
Assay type: physicochemical
MEASUREMENT_PARAMETERS: buffer
solubility kinetic listing for selected compounds.
Express your answer in µg/mL, writing the number without its unit.

Examples with answers:
COc1ccc(C)cc1S(=O)(=O)Nc1cccnc1; 28.5
COc1ccc(Br)cc1S(=O)(=O)Nc1cnc2ccccc2c1; 37.9
COc1cc([N+](=O)[O-])ccc1S(=O)(=O)Nc1cnc2ccccc2c1; 178
COc1ccc(OC)c(S(=O)(=O)Nc2cnc3ccccc3c2)c1; 138
COc1cc([N+](=O)[O-])ccc1S(=O)(=O)Nc1cccnc1; 1.1

Prompt: I'd like to know its solubility kinetic. The compound in question is COc1ccc(C)cc1S(=O)(=O)Nc1cnc2ccccc2c1
Response: 71.6

====

MEASUREMENT_NOTES: Metabolic stability in rat liver microsomes after 30 mins
Format: ADME, Microsome
MEASUREMENT_PARAMETERS: read-out: Stability
EXPERIMENTAL_READOUT: remaining at 0.5 h (%)
API: value field is a number in %; no unit string.

Recorded results for 5 compounds are shown here.
COc1ccc(Br)cc1S(=O)(=O)Nc1cnc2ccccc2c1; 49
COc1cc([N+](=O)[O-])ccc1S(=O)(=O)Nc1cnc2ccccc2c1; 56
COc1ccc(C)cc1S(=O)(=O)Nc1cnc2ccccc2c1; 48
COc1cc([N+](=O)[O-])ccc1S(=O)(=O)Nc1cccnc1; 68
COc1ccc(OC)c(S(=O)(=O)Nc2cnc3ccccc3c2)c1; 78

Next, consider the following compound.
Prompt: Need remaining at 0.5 h of COc1ccc(C)cc1S(=O)(=O)Nc1cccnc1 , thanks.
Response: 39

====

MEASUREMENT_NOTES: Cmax in rat at 4.13 mg/kg, sc
Format: ADME, organism-based
Set-up: dose 4.13 mg/kg, route subcutaneous
MEASUREMENT_PARAMETERS: in vivo
EXPERIMENTAL_READOUT: Cmax (ng/mL)
Provide the reading as a plain figure in ng/mL.

Prompt: Can you share its Cmax? I mean this molecule: COc1ccc(OC)c(S(=O)(=O)Nc2cnc3ccccc3c2)c1
Response: 1500

====

SUBJECT_OF_TEST: Alkaline phosphatase, tissue-nonspecific isozyme (Homo sapiens, UniProt P05186)
Sequence (P05186 whole entry): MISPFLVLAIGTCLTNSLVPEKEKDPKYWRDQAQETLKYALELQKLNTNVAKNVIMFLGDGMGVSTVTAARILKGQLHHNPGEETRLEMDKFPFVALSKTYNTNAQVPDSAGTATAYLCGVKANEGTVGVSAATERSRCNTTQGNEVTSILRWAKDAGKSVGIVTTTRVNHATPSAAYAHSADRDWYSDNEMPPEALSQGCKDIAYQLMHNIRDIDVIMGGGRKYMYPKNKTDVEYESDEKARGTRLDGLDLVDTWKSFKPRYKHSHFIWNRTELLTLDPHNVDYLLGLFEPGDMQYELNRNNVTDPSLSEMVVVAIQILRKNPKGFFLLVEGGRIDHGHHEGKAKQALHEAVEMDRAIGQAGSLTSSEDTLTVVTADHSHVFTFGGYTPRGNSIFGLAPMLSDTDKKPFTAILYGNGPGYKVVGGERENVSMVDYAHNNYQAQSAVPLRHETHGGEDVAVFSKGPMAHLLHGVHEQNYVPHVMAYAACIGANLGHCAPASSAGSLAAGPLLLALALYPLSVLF
MEASUREMENT_NOTES: Inhibition of TNAP transfected in african green monkey COS1 cells by luminescent assay
EXPERIMENTAL_READOUT: IC50 (nM)
Enter your answer as a number in nM; do not include the unit.

COc1cc(S(=O)(=O)Nc2cccnc2)c(OC)cc1C; 1490
COc1ccc(OC)c(S(=O)(=O)Nc2cccnc2)c1; 1060
CCOc1cc(C)c(Cl)cc1S(=O)(=O)Nc1cccnc1; 690

Prompt: Tell me the measured IC50 of COc1cc(C)c(Cl)cc1S(=O)(=O)Nc1cccnc1 , please.
Response: 510

Prompt: Also COc1cc(S(=O)(=O)Nc2cccnc2)c(OC)cc1Cl , if possible.
Response: 1130

Prompt: Same read-out for CCOc1ccc(C)cc1S(=O)(=O)Nc1cccnc1 ?
Response: 1130

Prompt: Next record, please: COc1cc(C)c(C)cc1S(=O)(=O)Nc1cccnc1
Response: 1680

Prompt: Proceed to COc1ccc(F)cc1S(=O)(=O)Nc1cccnc1
Response: 1290

====

MEASUREMENT_NOTES: Permeability by PAMPA assay
Format: ADME
Decision: permeability compared against 50%; not below it gives 1.0, below it gives 0.0.

Check out these entries, answers already filled in.
COc1cc([N+](=O)[O-])ccc1S(=O)(=O)Nc1cnc2ccccc2c1; 0.0
COc1ccc(C)cc1S(=O)(=O)Nc1cccnc1; 1.0
COc1ccc(C)cc1S(=O)(=O)Nc1cnc2ccccc2c1; 0.0
COc1ccc(Br)cc1S(=O)(=O)Nc1cnc2ccccc2c1; 1.0

Prompt: Is it the case that COc1ccc(OC)c(S(=O)(=O)Nc2cnc3ccccc3c2)c1 has permeability reaching or exceeding 50%?
Response: 1.0

====

SUBJECT_OF_TEST: Alkaline phosphatase, tissue-nonspecific isozyme (Homo sapiens, UniProt P05186)
MEASUREMENT_NOTES: Inhibition of TNAP transfected in african green monkey COS1 cells by luminescent assay
EXPERIMENTAL_READOUT: pIC50
Quick note: pIC50 values are minus log10 of concentrations in mol/L.

Consider the worked cases shown below.
COc1ccc(C)cc1S(=O)(=O)Nc1cccnc1; 5.73
CCOc1ccc(Cl)cc1S(=O)(=O)Nc1cccnc1; 6.27
COc1ccc(C)cc1S(=O)(=O)Nc1cnc2ccccc2c1; 6.19

Prompt: Recorded pIC50 for COc1cc([N+](=O)[O-])ccc1S(=O)(=O)Nc1cnc2ccccc2c1 , please?
Response: 6.13

Prompt: Item: COc1cc([N+](=O)[O-])ccc1S(=O)(=O)Nc1cccnc1
Response: 5.50

Prompt: Likewise for COc1cc(S(=O)(=O)Nc2cccnc2)c(OC)cc1Br ?
Response: 5.81
